biological target: human FGFR2b on cells (human) (UniProt P21802); test: flow cytometry, Expi293 cells overexpressing human FGFR2b
Sequence (P21802 other isoform, or with tags, fused parts or gaps limits assumed): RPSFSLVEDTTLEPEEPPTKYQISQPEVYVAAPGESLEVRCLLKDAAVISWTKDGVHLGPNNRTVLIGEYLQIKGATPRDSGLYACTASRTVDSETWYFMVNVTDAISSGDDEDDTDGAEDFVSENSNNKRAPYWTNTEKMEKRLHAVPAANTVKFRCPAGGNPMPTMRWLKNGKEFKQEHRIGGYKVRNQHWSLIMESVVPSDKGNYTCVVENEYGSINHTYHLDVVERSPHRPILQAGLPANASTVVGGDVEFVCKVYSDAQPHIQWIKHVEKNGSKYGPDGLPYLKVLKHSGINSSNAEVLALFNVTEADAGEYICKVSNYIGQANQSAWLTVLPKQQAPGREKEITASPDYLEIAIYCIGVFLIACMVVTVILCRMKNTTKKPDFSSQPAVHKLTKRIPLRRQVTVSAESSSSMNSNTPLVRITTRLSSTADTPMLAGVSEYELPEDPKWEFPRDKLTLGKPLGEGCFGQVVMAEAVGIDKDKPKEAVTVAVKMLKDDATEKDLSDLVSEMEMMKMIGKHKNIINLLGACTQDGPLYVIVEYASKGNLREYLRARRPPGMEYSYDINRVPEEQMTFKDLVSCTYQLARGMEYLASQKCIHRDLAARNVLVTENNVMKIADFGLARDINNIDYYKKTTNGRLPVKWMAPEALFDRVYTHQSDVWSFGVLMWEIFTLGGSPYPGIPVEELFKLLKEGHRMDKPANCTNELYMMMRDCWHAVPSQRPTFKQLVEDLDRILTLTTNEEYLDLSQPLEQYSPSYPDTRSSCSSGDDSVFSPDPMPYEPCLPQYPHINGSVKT
observable: Emax (MFI)
The reply should contain only the number, in MFI.

[
  {
    "binder": "BGAh9239 (antibody, human IgG1, kappa, V domains shown) VH: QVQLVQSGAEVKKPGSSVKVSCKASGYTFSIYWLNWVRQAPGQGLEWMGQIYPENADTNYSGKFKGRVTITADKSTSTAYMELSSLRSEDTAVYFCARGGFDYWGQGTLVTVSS VL: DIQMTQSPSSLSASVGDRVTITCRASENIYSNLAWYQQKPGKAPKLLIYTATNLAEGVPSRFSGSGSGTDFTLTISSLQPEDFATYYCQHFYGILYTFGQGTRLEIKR",
    "observed": "3.08e+06"
  },
  {
    "binder": "BGAm1823 (antibody, V domains shown) VH: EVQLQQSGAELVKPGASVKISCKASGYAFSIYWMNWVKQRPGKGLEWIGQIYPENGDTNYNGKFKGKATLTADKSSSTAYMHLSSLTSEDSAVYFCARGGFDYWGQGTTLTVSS VL: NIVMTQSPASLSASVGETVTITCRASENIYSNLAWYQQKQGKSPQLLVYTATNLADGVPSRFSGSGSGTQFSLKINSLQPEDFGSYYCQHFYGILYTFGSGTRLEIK",
    "observed": "3.09e+06"
  },
  {
    "binder": "BGAh9179 (antibody, human IgG1, kappa, V domains shown) VH: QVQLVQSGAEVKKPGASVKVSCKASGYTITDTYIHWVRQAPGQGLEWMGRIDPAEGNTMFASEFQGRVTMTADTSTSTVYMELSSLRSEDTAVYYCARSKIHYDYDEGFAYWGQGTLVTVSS VL: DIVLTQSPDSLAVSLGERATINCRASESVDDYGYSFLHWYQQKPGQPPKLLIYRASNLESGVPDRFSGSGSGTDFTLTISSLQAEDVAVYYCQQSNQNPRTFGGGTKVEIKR",
    "observed": "2.98e+06"
  }
]

Let us move to another entry and its Emax (MFI).
Please give the measured Emax (MFI) for this binder: BGAm1371 (antibody, V domains shown) VH: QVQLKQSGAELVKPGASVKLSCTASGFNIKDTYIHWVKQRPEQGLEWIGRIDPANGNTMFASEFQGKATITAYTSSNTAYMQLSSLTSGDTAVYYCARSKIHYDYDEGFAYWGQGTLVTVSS VL: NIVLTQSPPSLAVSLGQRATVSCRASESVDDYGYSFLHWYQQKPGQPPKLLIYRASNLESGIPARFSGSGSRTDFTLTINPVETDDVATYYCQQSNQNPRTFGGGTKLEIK
3.05e+06
